# test summary: Time in which 1/2 of the initial amount disappeared in human blood
# Type: ADME, organism-based
quantity measured: half-life (min)
Give bare numbers, in min.

Using known records, supply half-life for CC(C)(C)NCC(O)COC(=O)c1ccc(F)cc1 (stereo unspecified)
11.5

###

# test summary: t1/2 in canine liver
# Format: ADME, Canis lupus familiaris
# reported conditions: dog
Answer each item with its documented log10 of half-life.
# values: log10(half-life), units min

Below: 5 compounds and their reported log10 of half-life.
CCC(C)(C)NCC(O)COC(=O)c1ccccc1F (stereo not drawn)	1.08
CC(C)(C)NCC(O)COC(=O)c1ccccc1F (stereo not drawn)	1.00
CC(C)(CNC(N)=O)NCC(O)COC(=O)c1ccccc1F (stereo not drawn)	0.40
CC(C)NCC(O)COC(=O)c1ccc2c(c1)OCO2 (stereo not drawn)	1.46
CC(C)C(=O)NCC(C)(C)NCC(O)COC(=O)c1ccccc1F (stereo not drawn)	0.54

Please give log10 of half-life, item by item, for the list that follows.
1. C#CC(C)(C)NCC(O)COC(=O)c1ccccc1F (stereo not drawn)
2. CC(C)NCC(O)COC(=O)c1ccc(F)cc1 (stereo not drawn)

0.85
0.48
